experimental-system: Pancreatic Lipase (Sus scrofa, UniProt P00591)
Construct: purchased Sigma L-3126
Sequence (P00591 1-450): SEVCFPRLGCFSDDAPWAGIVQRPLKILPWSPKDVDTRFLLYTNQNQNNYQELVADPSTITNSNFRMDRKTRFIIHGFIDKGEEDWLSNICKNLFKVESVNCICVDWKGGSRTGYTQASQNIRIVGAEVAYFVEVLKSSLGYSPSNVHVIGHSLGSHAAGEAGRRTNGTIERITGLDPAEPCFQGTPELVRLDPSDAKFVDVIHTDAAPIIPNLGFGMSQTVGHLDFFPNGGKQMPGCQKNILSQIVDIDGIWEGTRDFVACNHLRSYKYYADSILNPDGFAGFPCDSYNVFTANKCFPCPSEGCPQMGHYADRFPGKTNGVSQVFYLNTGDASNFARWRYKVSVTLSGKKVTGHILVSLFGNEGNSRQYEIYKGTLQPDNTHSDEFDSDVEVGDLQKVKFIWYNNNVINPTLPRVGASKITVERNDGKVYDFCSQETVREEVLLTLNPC
assay-details: Pancreatic lipase inhibition assay (p-nitro phenol palmitate substrate, 96-well)
Type: biochemical
assay-conditions: pancreatic lipase, compound 100 μM, 37° C., OD 405 nm
assay-metric: inhibition at 100 µM

compound	experimental-system	assay-value
CCCCCCCCCCCC1=C(OC(=O)c2ccccc2[N+](=O)[O-])C(=O)C=C(OC(=O)c2ccccc2[N+](=O)[O-])C1=O [Structure #14]	Pancreatic Lipase (Sus scrofa, UniProt P00591)	65.9%
CCCCCCCCCCCC1=C(OC(=O)c2cccc(F)c2)C(=O)C=C(OC(=O)c2cccc(F)c2)C1=O [Structure #2]	Pancreatic Lipase (Sus scrofa, UniProt P00591)	99.2%
CCCCCCCCCCCC1=C(O)C(=O)C=C(O)C1=O [Structure #20, 2,5-Dihydroxy-3-undecyl-p-benzoquinone, reference compound]	Pancreatic Lipase (Sus scrofa, UniProt P00591)	67.9%
CCCCCCCCCCCC1=C(OC(=O)c2cccc(Cl)c2)C(=O)C=C(OC(=O)c2cccc(Cl)c2)C1=O [Structure #7]	Pancreatic Lipase (Sus scrofa, UniProt P00591)	100%
CCCCCCCCCCCC1=C(OC(=O)c2ccccc2I)C(=O)C=C(OC(=O)c2ccccc2I)C1=O [Structure #19]	Pancreatic Lipase (Sus scrofa, UniProt P00591)	29.2%
CCCCCCCCCCCC1=C(OC(=O)c2ccc(Br)cc2)C(=O)C=C(OC(=O)c2ccc(Br)cc2)C1=O [Structure #10]	Pancreatic Lipase (Sus scrofa, UniProt P00591)	87.5%
CCCCCCCCCCCC1=C(OC(=O)c2cccc(Br)c2)C(=O)C=C(OC(=O)c2cccc(Br)c2)C1=O [Structure #6]	Pancreatic Lipase (Sus scrofa, UniProt P00591)	100%
CCCCCCCCCCCC1=C(OC(=O)c2ccc(F)cc2)C(=O)C=C(OC(=O)c2ccc(F)cc2)C1=O [Structure #16]	Pancreatic Lipase (Sus scrofa, UniProt P00591)	89.5%

Source: patent US7355055B2
